Test system: IL-17A-induced G-CSF production in human normal keratinocyte (NHK)
Assay: NHK assay: IL-17A-induced G-CSF production in normal human keratinocytes
Format: cell-based
Settings: Homo sapiens, Keratinocyte, 24 h, IL-17A 5 ng/mL, G-CSF by HTRF, average if tested more than once
pIC50: −log10 of the molar value.
OBSERVABLE: pIC50

Answered cases to consult:
COC[C@H](c1cnn2cc([C@H](NC(=O)c3nonc3C3CC3)[C@@H]3CCC(F)(F)C3)nc2c1)N1CC(F)(F)CNC1=O (relative stereo)    > 7.30
COC[C@H](c1cnn2cc([C@@H](NC(=O)c3nonc3C(F)(F)F)C3CCC(F)(F)CC3)nc2c1)N1CC(F)(F)CNC1=O    > 7.30
Cc1nonc1C(=O)N[C@@H](CC(C)(C)C(F)(F)F)c1cn2ncc([C@@H](COC3CC3)N3CC(F)(F)CNC3=O)cc2n1    > 7.30
COC[C@H](c1cnn2cc([C@@H](NC(=O)c3nonc3OC)C3CCC(F)(F)CC3)nc2c1)N1CC(F)(F)C(F)(F)CNC1=O    7.00 to 7.30

Now turn to the next compound.
Lookup: Which pIC50 reading was recorded for the compound CC(C)n1ncnc1C(=O)N[C@H](c1cn2ncc(CN3CC(F)(F)CNC3=O)cc2n1)C1CCC(F)(F)CC1 ?
Found: < 7.00

Numbers sourced from patent US12173007B2.
